experimental-target: AKT1 WT (Homo sapiens)
Construct: expressed in transfected cells; host or cells: HEK293
assay-name: Live cell AKT1 WT target engagement by NanoBRET competitive probe displacement in HEK293 cells
Format: binding
experimental-parameters: NanoBRET live cell target engagement, HEK293 cells, 2 h at 37° C.; read-out: AKT1 WT IC50
reported-property: IC50 (nM)

Some compounds with known IC50 results, for comparison:
Nc1ncccc1-c1nc2ccc(-n3cccn3)nc2n1-c1ccc2c(c1)CC[C@@H]2NC(=O)c1cccnc1CO [Compound 152]; 61.7
Nc1ncccc1-c1nc2ccc(-n3cccn3)nc2n1-c1ccc2c(c1)CC[C@@H]2NC(=O)c1cnc2[nH]ncc2c1 [Compound 192]; 9.54
Nc1ncccc1-c1nc2ccc(-n3nccn3)nc2n1-c1ccc2c(c1)CC[C@@H]2NC(=O)c1cncnc1 [Compound 59]; 48.8
CC(=O)Nc1ccc(C(=O)N[C@H]2CCc3cc(-n4c(-c5cccnc5N)nc5ccc(-n6cccn6)nc54)ccc32)cc1F [Compound 309]; 10.8

A. Nc1ncccc1-c1nc2ccc(-n3cccn3)nc2n1-c1ccc2c(c1)CC[C@@H]2NC(=O)c1cccc(F)c1 [Compound 332]
B. Nc1ncccc1-c1nc2ccc(-n3cccn3)nc2n1-c1ccc2c(c1)CC[C@@H]2NC(=O)c1cncc(F)c1 [Compound 32]
[Q] Given the listed items, does A or B have the lesser reported IC50? Reply with the label of the item you choose.
[A] A
(A: 7.58 nM, B: 11 nM)

* * *

experimental-target: AKT2 (Homo sapiens, UniProt P31751)
Construct: expressed in transfected cells; host or cells: HEK293
Sequence (P31751 whole entry): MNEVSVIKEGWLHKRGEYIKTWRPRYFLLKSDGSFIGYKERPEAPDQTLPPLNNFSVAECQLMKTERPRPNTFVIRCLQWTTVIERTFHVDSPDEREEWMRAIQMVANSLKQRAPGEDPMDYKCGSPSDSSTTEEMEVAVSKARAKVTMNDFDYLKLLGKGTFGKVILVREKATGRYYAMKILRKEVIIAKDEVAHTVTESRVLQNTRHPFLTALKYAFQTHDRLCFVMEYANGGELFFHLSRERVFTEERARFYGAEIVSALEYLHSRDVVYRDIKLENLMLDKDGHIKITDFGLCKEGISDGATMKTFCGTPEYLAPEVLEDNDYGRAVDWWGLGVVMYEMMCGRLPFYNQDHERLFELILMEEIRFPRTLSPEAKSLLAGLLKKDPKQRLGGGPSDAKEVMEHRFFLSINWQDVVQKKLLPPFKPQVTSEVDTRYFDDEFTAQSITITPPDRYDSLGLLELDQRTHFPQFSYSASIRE
assay-name: Live cell AKT2 target engagement by NanoBRET competitive probe displacement in HEK293 cells
Assay type: binding
experimental-parameters: NanoBRET live cell target engagement, HEK293 cells, 2 h at 37° C.; read-out: AKT2 IC50
reported-property: IC50 (nM)

Examples from the recorded data:
COc1ncccc1C(=O)N[C@H]1CCc2cc(-n3c(-c4cccnc4N)nc4ccc(-n5cccn5)nc43)ccc21; 442
Nc1ncccc1-c1nc2ccc(-n3cccn3)nc2n1-c1ccc2c(c1)CC[C@@H]2NC(=O)c1ccnc2c1OC(F)(F)O2; 1730

a. Nc1ncccc1-c1nc2ccc(-n3cccn3)nc2n1-c1ccc2c(c1)CC[C@@H]2NC(=O)C1COC1
b. CC(=O)N1CCC(N[C@H]2CCc3cc(-n4c(-c5cccnc5N)nc5ccc(-n6cccn6)nc54)ccc32)CC1
[Q] Parameter check: reported IC50 is higher for which label, a or b ? Please identify the chosen entry by its label.
[A] b
(b: 5830 nM, a: 4030 nM)

A. Cc1ncccc1C(=O)N[C@H]1CCc2cc(-n3c(-c4cccnc4N)nc4c(C#N)cc(-n5cccn5)nc43)ccc21
B. Nc1ncccc1-c1nc2ccc(-n3cccn3)nc2n1-c1ccc2c(c1)CC[C@@H]2N1CCC1
C. CCc1ncccc1C(=O)N[C@H]1CCc2cc(-n3c(-c4cccnc4N)nc4ccc(-n5cccn5)nc43)ccc21
[Q] Highest IC50 first, then in falling order down to the smallest. A ranking is expressed here by listing the labels in the requested order.
[A] B, C, A
(B: 1900 nM, C: 427 nM, A: 201 nM)

a. Nc1ncccc1-c1nc2ccc(-n3nccn3)nc2n1-c1ccc2c(c1)CC[C@@H]2NC(=O)c1cnc(C(F)F)c(F)c1
b. Nc1ncccc1-c1nc2ccc(-n3cccn3)nc2n1-c1ccc2c(c1)CC[C@@H]2NC(=O)c1ccnc(C(F)F)c1
[Q] Of the two listed items, which has the higher IC50? First: a Second: b // return label of chosen record
[A] a

1. Cc1ccc(C(=O)N[C@H]2CCc3cc(-n4c(-c5cccnc5N)nc5ccc(-c6ncco6)nc54)ccc32)cn1
2. Nc1ncccc1-c1nc2ccc(-n3cccn3)nc2n1-c1ccc2c(c1)CC[C@@H]2NC(=O)c1cnc2c(c1)CC(=O)N2
[Q] Pick the one with the larger IC50: 1 vs 2 # reply format: chosen label
[A] 1
(1: 586 nM, 2: 342 nM)

a. CNS(=O)(=O)c1cccc(C(=O)N[C@H]2CCc3cc(-n4c(-c5cccnc5N)nc5ccc(-n6cccn6)nc54)ccc32)c1
b. Nc1ncccc1-c1nc2ccc(-n3cccn3)nc2n1-c1ccc2c(c1)CC[C@@H]2NC(=O)c1ccc2cccn2c1
[Q] Hi, I'm comparing a with b and wondering which one has the bigger number for IC50. Any idea? The response must carry the label of the picked entry.
[A] a
(a: 1090 nM, b: 181 nM)

I. C#CC1(OCC(=O)N[C@H]2CCc3cc(-n4c(-c5cccnc5N)nc5ccc(-n6cccn6)nc54)ccc32)COC1
II. Cc1cn([C@H]2CCc3cc(-n4c(-c5cccnc5N)nc5ccc(-n6cccn6)nc54)ccc32)nn1
III. Cc1ccc(C(=O)N[C@H]2CCc3cc(-n4c(-c5cccnc5N)nc5ccc(-n6cncn6)nc54)ccc32)cn1
IV. Cc1cc(-n2cccn2)nc2c1nc(-c1cccnc1N)n2-c1ccc2c(c1)CC[C@@H]2NC(=O)c1ccc(C(F)F)nc1
V. Nc1ncccc1-c1nc2ccc(-n3cccn3)nc2n1-c1ccc2c(c1)CC[C@@H]2n1cnnc1CC1CC1
[Q] Please put the entries in order of rising IC50. Record the ranking as a list of labels in the requested order.
[A] IV, V, III, II, I
(IV: 8.02 nM, V: 525 nM, III: 987 nM, II: 4750 nM, I: 8890 nM)

P. Nc1ncccc1-c1nc2ccc(-n3cccn3)nc2n1-c1ccc2c(c1)CC[C@@H]2NC(=O)c1cc(F)c(F)c(F)c1
Q. CS(=O)(=O)Nc1ccc(C(=O)N[C@H]2CCc3cc(-n4c(-c5cccnc5N)nc5ccc(-n6cccn6)nc54)ccc32)cn1
[Q] Looking at recorded values for IC50, does P or Q come in lower? Kindly state the label of the option you pick.
[A] P

P. Cc1csc(-c2ccc3nc(-c4cccnc4N)n(-c4ccc5c(c4)CC[C@@H]5n4ccnn4)c3n2)n1
Q. Cc1ncc(C(=O)N[C@H]2CCc3cc(-n4c(-c5cccnc5N)nc5ccc(-n6cccn6)nc54)ccc32)c(C)n1
[Q] Among P and Q , whose measured IC50 is the smaller figure? Pick one; state its label.
[A] Q

* * *

experimental-target: AKT1 WT (Homo sapiens, UniProt P31749)
Construct: expressed in transfected cells; host or cells: HEK293
Sequence (P31749 whole entry): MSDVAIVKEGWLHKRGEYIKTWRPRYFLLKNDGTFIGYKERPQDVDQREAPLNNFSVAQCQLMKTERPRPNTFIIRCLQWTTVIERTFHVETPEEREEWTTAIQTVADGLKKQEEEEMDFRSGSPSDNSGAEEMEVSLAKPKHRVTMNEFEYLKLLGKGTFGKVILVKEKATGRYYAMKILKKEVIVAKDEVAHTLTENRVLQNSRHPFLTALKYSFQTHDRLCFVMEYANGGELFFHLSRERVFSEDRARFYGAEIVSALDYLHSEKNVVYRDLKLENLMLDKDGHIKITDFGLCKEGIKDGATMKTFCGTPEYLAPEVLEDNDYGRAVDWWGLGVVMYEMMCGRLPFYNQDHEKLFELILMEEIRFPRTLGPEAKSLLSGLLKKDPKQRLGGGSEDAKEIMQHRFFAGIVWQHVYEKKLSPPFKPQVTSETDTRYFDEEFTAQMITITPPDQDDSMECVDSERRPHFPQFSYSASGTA
assay-name: Live cell AKT1 WT target engagement by NanoBRET competitive probe displacement in HEK293 cells
Type: binding
experimental-parameters: NanoBRET competitive probe displacement, live HEK293 cells, 2 h at 37° C.; read-out: AKT1 WT IC50
reported-property: IC50 (nM)

A. C#Cc1cc(-n2nccn2)nc2c1nc(-c1cccnc1N)n2-c1ccc2c(c1)CC[C@@H]2NC(=O)c1ccc(C(F)F)nc1
B. COc1cncc(-c2ccc3nc(-c4cccnc4N)n(-c4ccc5c(c4)CC[C@@H]5NC4CCN(C(=O)C5CC5)CC4)c3n2)n1
C. COc1cnn(-c2ccc3nc(-c4cccnc4N)n(-c4ccc5c(c4)CC[C@@H]5NC(=O)c4cnc(C(F)F)s4)c3n2)n1
[Q] Parameters: sort_by = IC50; order = desc; input = items above. Answer by listing the labels in the order asked for.
[A] A, B, C

* * *

experimental-target: AKT1 WT (Homo sapiens)
Construct: expressed in transfected cells; host or cells: HEK293
assay-name: Live cell AKT1 WT target engagement by NanoBRET competitive probe displacement in HEK293 cells
Assay type: binding
experimental-parameters: NanoBRET competitive probe displacement, live HEK293 cells, 2 h at 37° C.; read-out: AKT1 WT IC50
Method: Determining live cell AKT1 E17K, AKT1 WT, and AKT2 target engagement by NanoBRET competitive probe displacement. […] Briefly, HEK293 cells were transfected with plasmids encoding kinase-NanoLuciferase fusion proteins overnight. […] After incubation for 2 h at 37° C., luciferase substrate and extracellular luciferase inhibitor were added to all wells, and luminescent intensity at 460 nm and 600 nm were measured on a multimode plate-reader. […]
reported-property: IC50 (nM)

Cc1cnc(C#N)nc1N1CCC(N[C@H]2CCc3cc(-n4c(-c5cccnc5N)nc5ccc(-n6cccn6)nc54)ccc32)CC1 [Compound 585]; 4.77
N#Cc1nc(N2CCC(N[C@H]3CCc4cc(-n5c(-c6cccnc6N)nc6ccc(-n7cccn7)nc65)ccc43)CC2)cs1 [Compound 593]; 4.56

a. N[C@H]1CCc2cc(-n3c(-c4ccccc4F)nc4ccc(-n5cccn5)nc43)ccc21 [Compound 527]
b. Nc1ncccc1-c1nc2ccc(-n3cccn3)nc2n1-c1ccc2c(c1)CC[C@@H]2NC1CCc2nc(C(F)F)sc21 (stereo partly shown) [Compound 601]
[Q] Rank a against b by their IC50 values and give the higher one. Your choice should be expressed through its label.
[A] b
(b: 102 nM, a: 19.5 nM)

* * *

experimental-target: AKT2 (Homo sapiens)
Construct: expressed in transfected cells; host or cells: HEK293
assay-name: Live cell AKT2 target engagement by NanoBRET competitive probe displacement in HEK293 cells
Format: binding
experimental-parameters: NanoBRET live cell target engagement, HEK293 cells, 2 h at 37° C.; read-out: AKT2 IC50
reported-property: IC50 (µM)

Take a look at these entries with their results.
Nc1ncccc1-c1nc2ccc(-n3cccn3)nc2n1-c1ccc2c(c1)CC[C@@H]2NC(=O)c1ccc2c(c1)CC(=O)N2; 0.0395
Nc1ncccc1-c1nc2ccc(-n3cccn3)nc2n1-c1ccc2c(c1)CC[C@@H]2NC(=O)c1cc2ncccn2n1; 0.315
Nc1ncccc1-c1nc2ccc(-n3cccn3)nc2n1-c1ccc2c(c1)CC[C@@H]2n1cc(-c2ccccn2)nn1; 0.212

P. Cn1ccc(C#Cc2ncccc2C(=O)N[C@H]2CCc3cc(-n4c(-c5cccnc5N)nc5ccc(-n6cccn6)nc54)ccc32)n1
Q. N#Cc1cc(-n2ccc(F)n2)nc2c1nc(-c1cccnc1N)n2-c1ccc2c(c1)CC[C@@H]2NC(=O)c1ccc(C(F)F)nc1
R. Nc1ncccc1-c1nc2ccc(-n3cccn3)nc2n1-c1ccc2c(c1)CC[C@@H]2NC(=O)c1cc(F)cc(F)c1
[Q] Hey, quick one: sort these by IC50, largest value first please. API: response body holds the labels in the requested order.
[A] P, Q, R
